Here, molecules appear alongside log10(IC50) reported for Urokinase-type plasminogen activator (Homo sapiens) in the literature.
Answers are given as log10 of IC50 in µM.

Answered examples (5):
- MOLECULE: "COc1cc(C2Oc3cc([C@H]4Oc5cc(O)cc(O)c5C(=O)[C@@H]4O)ccc3OC2CO)ccc1O (stereo partly drawn)"
  ASSAY SYSTEM: "Urokinase-type plasminogen activator (Homo sapiens)"
  log10(IC50): 1.32
- MOLECULE: "N=C(N)Nc1ccc(CNc2c(-c3cccnc3)nc3cc(C(=O)O)ccn23)cc1"
  ASSAY SYSTEM: "Urokinase-type plasminogen activator (Homo sapiens)"
  log10(IC50): 1.43
- MOLECULE: "CCOC(=O)N1CCN(C(=O)[C@H](Cc2cccc(C(=N)N)c2)NS(=O)(=O)c2c(C(C)C)cc(C(C)C)cc2C(C)C)CC1"
  ASSAY SYSTEM: "Urokinase-type plasminogen activator (Homo sapiens)"
  log10(IC50): -0.39
- MOLECULE: "NCc1cccc(-c2cccc(Oc3nc(Oc4cccc(C(=O)O)c4)c(F)cc3F)c2)c1"
  ASSAY SYSTEM: "Urokinase-type plasminogen activator (Homo sapiens)"
  log10(IC50): 1.30
- MOLECULE: "CC(C)(C)[C@@H](Oc1nc(Oc2cccc(-c3cccc(CN)c3)c2)c(F)cc1F)C(=O)O"
  ASSAY SYSTEM: "Urokinase-type plasminogen activator (Homo sapiens)"
  log10(IC50): -1.08

Please look at the following molecule next.
## Input Can you look up log10(IC50) on Urokinase-type plasminogen activator (Homo sapiens) for `CC(C)c1ccc(C(=O)O)c(Oc2nc(Oc3cccc(-c4cccc(CN)c4)c3)c(F)cc2F)c1` ?
## Output -0.17

* * *

Here, compounds appear alongside pIC50 reported for Urokinase-type plasminogen activator (Homo sapiens) in the literature.
// returns pIC50 (minus log10 of molar concentration), number only

Answered examples (10):
- STRUCTURE NOTATION: "Cc1c(F)c(Oc2cccc(-c3cccc(C(=N)N)c3)c2)nc(Oc2cc(N(C)C)ccc2C(=O)O)c1F"
  VALUE TYPE: "pIC50"
  TEST RESULT: 7.01
- STRUCTURE NOTATION: "Nc1nc(-c2ccccn2)nn1C(=O)c1ccc2ccccc2c1"
  VALUE TYPE: "pIC50"
  TEST RESULT: 5.17
- STRUCTURE NOTATION: "Nc1nc2ccccc2[nH]1"
  VALUE TYPE: "pIC50"
  TEST RESULT: 3.70
- STRUCTURE NOTATION: "NCc1cccc(-c2cccc(Oc3nc(Oc4cc([N+](=O)[O-])ccc4C(=O)O)c(F)cc3F)c2)c1"
  VALUE TYPE: "pIC50"
  TEST RESULT: 5.89
- STRUCTURE NOTATION: "CCOC(=O)c1nn(C(=O)c2cccc(C)c2)c2ccc(NC(=O)CC)cc12"
  VALUE TYPE: "pIC50"
  TEST RESULT: 4.83
- STRUCTURE NOTATION: "N=C(N)c1ncc(NCC(=O)O)nc1N"
  VALUE TYPE: "pIC50"
  TEST RESULT: 3.67
- STRUCTURE NOTATION: "CNc1c(F)c(Oc2cccc(-c3cccc(CN)c3)c2)nc(Oc2cc(N(C)C)ccc2C(=O)O)c1F"
  VALUE TYPE: "pIC50"
  TEST RESULT: 6.89
- STRUCTURE NOTATION: "COc1ccc(-c2ccc(C(=O)NCC(C)(C)C)cc2C(=O)O)c(C(=O)Nc2ccc3c(N)nccc3c2)n1"
  VALUE TYPE: "pIC50"
  TEST RESULT: 4.50
- STRUCTURE NOTATION: "N=C(N)Nc1ccc(CNc2c(-c3cccc(F)c3)nc3ccccn23)cc1"
  VALUE TYPE: "pIC50"
  TEST RESULT: 4.00
- STRUCTURE NOTATION: "N=C(N)NC(=O)c1nc(Cl)c(NCC[n+]2ccccc2)nc1N"
  VALUE TYPE: "pIC50"
  TEST RESULT: 4.52

## Input Can you look up pIC50 on Urokinase-type plasminogen activator (Homo sapiens) for `NC(N)=NC(=O)c1nc(Cl)c(NCC(=O)OCc2ccccc2)nc1N` ?
## Output 5.52

## Input Can you look up pIC50 on Urokinase-type plasminogen activator (Homo sapiens) for `CCOP(=O)(CCNc1nc(N)c(C(=O)NC(=N)N)nc1Cl)OCC` ?
## Output 4.36

## Input Can you look up pIC50 on Urokinase-type plasminogen activator (Homo sapiens) for `N=C(NO)c1ncc(NCC(=O)O)nc1N` ?
## Output 3.55

* * *

Here, molecules appear alongside IC50 reported for Urokinase-type plasminogen activator (Homo sapiens, UniProt P00749) in the literature.
Range-based classes on measured IC50: one: < 3 µM; two: ≥ 3 µM and < 200 µM; three: ≥ 200 µM

- STRUCTURE NOTATION: "CCCCNC(=O)c1ccc2nc(-c3cccnc3)c(NCc3ccc(NC(=N)N)cc3)n2c1"
  ASSIGNED LABEL: "two"
- STRUCTURE NOTATION: "CC[C@@H](Oc1nc(Oc2cc(C)cc(-c3cccc(CN)c3)c2)c(F)cc1F)C(=O)O"
  ASSIGNED LABEL: "one"
- STRUCTURE NOTATION: "N=C(N)NC(=O)c1ncc(N)nc1N"
  ASSIGNED LABEL: "two"

## Input Bin? `N=C(N)Nc1ccc(CNc2cnc3cc(C(=O)NC4CC4)ccn23)cc1`
## Output one

## Input Bin? `COc1cc(N)c(Cl)cc1C(=O)NC(=N)N`
## Output three

## Input Bin? `N=C(N)NC(=O)c1ccccn1`
## Output three

## Input Bin? `N=C(N)Nc1ccc(CNc2c(C3CCNCC3)nc3ccccn23)cc1`
## Output three

## Input Bin? `CCc1nc2ccccn2c1NCCc1ccc(NC(=N)N)cc1`
## Output two

## Input Bin? `Clc1ccc(OCCNc2cnc3ccccn23)c(Cl)c1`
## Output three

## Input Bin? `COc1ccc(C(=O)O)c(Oc2nc(Oc3cccc(-c4cccc(CN)c4)c3)c(F)cc2F)c1`
## Output one

## Input Bin? `N=C(N)NC(=O)c1nc(Br)c(N)nc1N`
## Output two
